B1: glmS ribozyme (parent)
chain: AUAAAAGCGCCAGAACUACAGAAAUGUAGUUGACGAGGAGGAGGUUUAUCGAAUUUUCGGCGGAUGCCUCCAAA

Variants of: B1
Assay: self-cleavage kobs at 2500 uM GlcN6P; higher = faster cleavage; RNA array
Conditions: with glucosamine-6-phosphate
Fewer inactive variants are shown than the library holds.
assayMetric: self-cleavage kobs at 2500 uM GlcN6P

Prompt: Query (variant): G7U C11G G13A A14U G32U A33C G37A G40A U47C ; field requested: self-cleavage kobs at 2500 uM GlcN6P
Response: < 1e-05 s⁻¹

Prompt: // query self-cleavage kobs at 2500 uM GlcN6P value for entry C8G G29A
Response: < 1e-05 s⁻¹

Prompt: Fill in the blank: the reported self-cleavage kobs at 2500 uM GlcN6P of A14U U47C C61G is ____.
Response: < 1e-05 s⁻¹

Prompt: Look at this variant and give its reported self-cleavage kobs at 2500 uM GlcN6P. G44U C61G
Response: < 1e-05 s⁻¹

Prompt: Request the reported self-cleavage kobs at 2500 uM GlcN6P associated with C16A U31C
Response: 0.000139 s⁻¹

Prompt: I am curious: what self-cleavage kobs at 2500 uM GlcN6P value has been reported for G41U G59A ?
Response: < 1e-05 s⁻¹

Prompt: I would be grateful if you could share the reported self-cleavage kobs at 2500 uM GlcN6P for U30C G44U U45G U69G .
Response: < 1e-05 s⁻¹

Prompt: Item under review: U30C U69G . Reported self-cleavage kobs at 2500 uM GlcN6P?
Response: 5.46e-05 s⁻¹

Prompt: Item A14G A42G G44A U55G has what recorded self-cleavage kobs at 2500 uM GlcN6P?
Response: 0.000136 s⁻¹

Prompt: I'd like to know its self-cleavage kobs at 2500 uM GlcN6P. The variant in question is C8U A12C A15C A33C U45G C50G
Response: < 1e-05 s⁻¹

Prompt: Record request: self-cleavage kobs at 2500 uM GlcN6P value, item A6U G29A
Response: 2.95e-05 s⁻¹
